target: COX-2 (Mus musculus); construct: host or cells: RAW 264.7 cells, pre-treated with aspirin and induced with interferon and LPS; assay: Assay for the COX-2 inhibitory activity using RAW 264.7 cell line (PGE2, EIA); type: cell-based; conditions: RAW264.7, 10 nM test compound, RAW 264.7 cells, aspirin pre-treated, interferon + LPS 18 hours, read-out: Cyclooxygenase (COX) Inhibition (%) COX-2 (10 nM)
Sequence (Q05769 18-604): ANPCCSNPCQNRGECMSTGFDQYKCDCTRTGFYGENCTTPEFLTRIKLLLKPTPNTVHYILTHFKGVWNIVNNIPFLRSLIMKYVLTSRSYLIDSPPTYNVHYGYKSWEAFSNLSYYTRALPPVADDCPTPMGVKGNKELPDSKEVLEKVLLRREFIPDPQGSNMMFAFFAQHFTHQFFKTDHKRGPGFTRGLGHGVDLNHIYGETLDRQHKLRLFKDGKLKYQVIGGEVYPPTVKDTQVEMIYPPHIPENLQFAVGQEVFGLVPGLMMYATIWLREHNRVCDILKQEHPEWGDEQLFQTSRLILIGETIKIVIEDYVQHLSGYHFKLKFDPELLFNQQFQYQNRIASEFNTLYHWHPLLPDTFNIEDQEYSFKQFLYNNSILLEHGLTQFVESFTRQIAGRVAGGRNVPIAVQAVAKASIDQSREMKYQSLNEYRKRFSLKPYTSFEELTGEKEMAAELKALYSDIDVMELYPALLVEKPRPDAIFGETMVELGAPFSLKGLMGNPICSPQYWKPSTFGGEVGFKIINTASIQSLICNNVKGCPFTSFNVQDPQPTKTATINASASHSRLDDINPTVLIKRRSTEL
test readout: inhibition at 0.01 µM (%)

>>> val("NS(=O)(=O)c1ccc(-n2c(-c3ccccc3)csc2=S)cc1")
60.9
>>> val("NS(=O)(=O)c1ccc(-n2c(-c3ccc(F)cc3)csc2=S)cc1")
72.7
>>> val("NS(=O)(=O)c1ccc(-n2c(-c3cccc([N+](=O)[O-])c3)csc2=S)cc1")
75
>>> val("NS(=O)(=O)c1ccc(-n2c(-c3ccc(Cl)cc3)csc2=S)cc1")
73.5
>>> val("Cc1sc(=S)n(-c2ccc(S(N)(=O)=O)cc2)c1-c1ccccc1")
66.5
>>> val("CS(=O)(=O)c1ccc(-c2csc(=S)n2-c2ccc(S(N)(=O)=O)cc2)cc1")
65.8

====

Reported melting point values for a set of molecules
test readout: melting point (°C)

>>> val("CS(=O)(=O)c1ccc(-c2csc(=S)n2-c2ccc(S(N)(=O)=O)cc2)cc1")
288
>>> val("NS(=O)(=O)c1ccc(-n2c(-c3ccc(F)cc3)csc2=S)cc1")
271
>>> val("NS(=O)(=O)c1ccc(-n2c(-c3ccc(Cl)cc3)csc2=S)cc1")
242
>>> val("NS(=O)(=O)c1ccc(-n2c(-c3ccccc3)csc2=S)cc1")
235
>>> val("Cc1sc(=S)n(-c2ccc(S(N)(=O)=O)cc2)c1-c1ccccc1")
262
>>> val("NS(=O)(=O)c1ccc(-n2c(-c3cccc([N+](=O)[O-])c3)csc2=S)cc1")
284

====

target: COX-1 (Homo sapiens, UniProt P23219); construct: host or cells: U-937 human lymphoma cells; assay: Assay for the COX-1 inhibitory activity using U-937 (PGE2 inhibition); type: cell-based; details: 1 μM test compound; U-937 human lymphoma cells; arachidonic acid substrate; PGE2 vs DMSO control; read-out: Cyclooxygenase (COX) Inhibition (%) COX-1 (1 μM)
Sequence (P23219 24-599): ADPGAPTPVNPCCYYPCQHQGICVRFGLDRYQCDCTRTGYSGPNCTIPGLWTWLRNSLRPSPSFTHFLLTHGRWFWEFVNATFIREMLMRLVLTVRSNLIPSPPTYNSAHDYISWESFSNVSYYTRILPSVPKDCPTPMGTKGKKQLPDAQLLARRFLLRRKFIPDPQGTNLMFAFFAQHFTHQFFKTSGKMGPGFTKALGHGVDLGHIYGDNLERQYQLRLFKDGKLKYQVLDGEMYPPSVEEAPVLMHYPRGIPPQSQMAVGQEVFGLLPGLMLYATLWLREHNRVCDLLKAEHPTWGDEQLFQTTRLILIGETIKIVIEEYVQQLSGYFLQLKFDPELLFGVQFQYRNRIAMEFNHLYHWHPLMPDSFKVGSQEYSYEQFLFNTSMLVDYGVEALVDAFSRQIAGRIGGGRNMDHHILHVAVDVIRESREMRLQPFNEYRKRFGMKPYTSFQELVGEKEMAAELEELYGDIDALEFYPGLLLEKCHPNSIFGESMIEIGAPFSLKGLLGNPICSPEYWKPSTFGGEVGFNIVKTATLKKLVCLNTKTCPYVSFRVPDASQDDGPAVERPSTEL
Reported inhibition at 1 µM values for a set of compounds
test readout: inhibition at 1 µM (%)

>>> val("NS(=O)(=O)c1ccc(-n2c(-c3ccc(F)cc3)csc2=S)cc1 [Example 4]")
31.1
>>> val("CS(=O)(=O)c1ccc(-c2csc(=S)n2-c2ccc(S(N)(=O)=O)cc2)cc1 [Example 3]")
30.7
>>> val("NS(=O)(=O)c1ccc(-n2c(-c3ccc(Cl)cc3)csc2=S)cc1 [Example 6]")
38.5
>>> val("NS(=O)(=O)c1ccc(-n2c(-c3ccccc3)csc2=S)cc1 [Example 1]")
28.5
>>> val("NS(=O)(=O)c1ccc(-n2c(-c3cccc([N+](=O)[O-])c3)csc2=S)cc1 [Example 5]")
15.8
>>> val("Cc1onc(-c2ccccc2)c1-c1ccc(S(N)(=O)=O)cc1 [Reference (Valdecoxib), Valdecoxib, reference compound]")
29.5
>>> val("Cc1sc(=S)n(-c2ccc(S(N)(=O)=O)cc2)c1-c1ccccc1 [Example 2]")
35.2

Origin of measurements: patent US6727268B2
